Field: log10 IC50. System: ROCK2 (Homo sapiens, UniProt O75116). Provenance: assorted publications.
Friendly reminder: values = log10 of IC50, unit nM.

compound: Cc1sc(NC(=O)Cc2ccc(Oc3ncccc3C(N)=O)c(F)c2)nc1-c1cnc(C(C)(C)O)nc1
log10 IC50: 2.67

compound: COc1cc(N2CCC3(CCN(C(=O)c4ccc(C)nc4)CC3)C2=O)ccc1-c1cn[nH]c1
log10 IC50: 2.34

compound: O=C(Nc1ccncc1Cl)c1cc2ccc(-c3nccc(Nc4ccc5[nH]ncc5c4)n3)cc2s1
log10 IC50: 2.09

compound: COc1ccc2sc(NC(=O)Cc3ccc(Oc4ncccc4C(N)=O)c(OC)c3)nc2c1
log10 IC50: 2.14

compound: O=C(COc1cccc(CNC(=O)c2ccc(-c3ccncc3)cc2)c1)NC1CC1
log10 IC50: 1.15

List log10 IC50 for every entry below, keeping the order given.
1. CN1CCc2ccc(NC(=O)c3cccc([C@@H](CO)NC(=O)c4ccc(-c5ccn[nH]5)cc4)c3)cc2C1
2. N#Cc1cc(C(=O)N[C@H]2C[C@]3(C2)C[C@H](Oc2nc4c(cc2C(N)=O)COCC4)C3)ccc1Br (stereo partly shown)
3. COc1cnc(-c2ccc3cc(C(=O)N4CC(F)(F)C4)n(C)c3c2)nc1Nc1ccc(-c2cn[nH]c2)cc1
4. O=C(C1CC(F)(F)C1)N1Cc2ccc(-c3ncc(F)c(Nc4ccc5c(=O)[nH]ncc5c4)n3)cc2C1
5. COc1cc(N2CCC3(CCN(C(=O)c4ccc(Cl)cc4)CC3)C2=O)ccc1-c1cn[nH]c1
6. Cc1sc2cc(C(N)=O)c(O[C@H]3C[C@@]4(C[C@H](NC(=O)c5cccc(C#N)c5)C4)C3)nc2c1C (stereo partly shown)

1: 0.97; 2: 2.28; 3: 1.26; 4: 1.23; 5: 1.79; 6: 1.90

###

Field: IC50. System: ROCK2 (Homo sapiens, UniProt O75116). Provenance: assorted publications.

// below: answered compounds
compound: [H][C@]1(c2n[nH]c(=O)c3ccccc32)C[C@]2(C[C@@H](NC(=O)c3ccc4cnn(C)c4c3)C2)C1 (stereo partly drawn)
IC50: 5.1 to 15 nM

compound: O=C(O)c1cccc(CN2CCN(c3ccc(-c4cn[nH]c4)cn3)C2=O)c1
IC50: 20.1 to 200 nM

List IC50 for every entry below, keeping the order given.
1. COc1cc(F)cc(C(C)N2CCN(c3ccc(-c4cn[nH]c4)c(C)n3)C2=O)c1 (single isomer, unassigned)
2. [H][C@]1(c2n[nH]c(=O)c3ccccc32)C[C@]2(C[C@@H](NC(=O)c3ccc(-c4cn[nH]c4)cc3OC)C2)C1 (stereo partly drawn)
3. COc1cccc(CN2C(=O)N(c3ccc(-c4cn[nH]c4)c(OC)n3)CC23CCN(CCC(F)(F)F)CC3)c1

["200 to 2000 nM", "2.01 to 5 nM", "< 3 nM"]

List IC50 for every entry below, keeping the order given.
1. COc1ncc(-c2ccc3c(C(=O)NC4CC5(C4)CC(c4n[nH]c(=O)c6ccccc46)C5)cnn3c2)cn1 (stereo not drawn)
2. O=C1N(c2ccc(-c3cn[nH]c3)cc2)CCC12Cc1ccccc1CN2 (stereo not drawn)
3. CCCS(=O)(=O)c1ccc2[nH]c(NC(=O)Cc3ccc(Oc4ncccc4C(N)=O)cc3)nc2c1
4. COc1cccc(CN2C(=O)N(c3ncc(-c4cn[nH]c4)c(OC)n3)CC23CCN(C(=O)OC(C)(C)C)CC3)c1
5. COc1cccc(-c2ccc3c(C(=O)NC4CC5(C4)CC(c4n[nH]c(=O)c6ccccc46)C5)nn(CC(C)(C)O)c3c2)c1 (stereo not drawn)

1: 2.01 to 5 nM; 2: 30 to 300 nM; 3: 558 nM; 4: 3 to 30 nM; 5: 2.01 to 5 nM
